molecular target: lipoxygenase (LOX) (Glycine max); assay: Lipoxygenase inhibition assay; format: biochemical; conditions: 0.5 mM; n = 3, mean ± sem
Sequence (P08170 whole entry): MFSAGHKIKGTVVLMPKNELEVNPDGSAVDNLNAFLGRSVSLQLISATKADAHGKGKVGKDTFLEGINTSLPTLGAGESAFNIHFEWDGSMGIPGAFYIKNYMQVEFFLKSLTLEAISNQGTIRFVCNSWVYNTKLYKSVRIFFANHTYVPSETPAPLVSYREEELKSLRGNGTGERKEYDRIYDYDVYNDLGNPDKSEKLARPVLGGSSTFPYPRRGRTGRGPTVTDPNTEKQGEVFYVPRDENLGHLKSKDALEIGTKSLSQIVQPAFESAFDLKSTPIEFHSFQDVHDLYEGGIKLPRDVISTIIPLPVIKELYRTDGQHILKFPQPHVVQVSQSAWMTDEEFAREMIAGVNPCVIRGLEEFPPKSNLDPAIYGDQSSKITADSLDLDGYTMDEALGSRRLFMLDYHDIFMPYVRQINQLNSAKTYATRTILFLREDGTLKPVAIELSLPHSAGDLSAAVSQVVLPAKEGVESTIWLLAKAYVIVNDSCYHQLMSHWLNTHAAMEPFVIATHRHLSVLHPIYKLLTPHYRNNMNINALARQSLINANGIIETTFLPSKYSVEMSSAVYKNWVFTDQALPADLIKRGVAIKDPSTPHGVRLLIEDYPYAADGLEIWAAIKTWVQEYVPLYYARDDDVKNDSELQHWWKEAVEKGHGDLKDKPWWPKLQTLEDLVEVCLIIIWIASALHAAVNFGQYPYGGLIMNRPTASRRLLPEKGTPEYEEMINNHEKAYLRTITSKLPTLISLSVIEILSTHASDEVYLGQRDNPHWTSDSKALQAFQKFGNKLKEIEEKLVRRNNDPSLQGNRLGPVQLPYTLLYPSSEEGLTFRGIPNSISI
Could you please report measured inhibition at 500 µM for the items listed next?
Answer with a number only, understood to be in %.

input: So what's the measured inhibition at 500 µM for this one? CCOc1cc(Br)c(Br)cc1N(CCc1ccccc1)S(=O)(=O)c1ccccc1
output: 90

input: Lookup CCOc1cc(Br)c(Br)cc1N(CC)S(=O)(=O)c1ccccc1
output: 81.8

input: CCOc1cc(Br)c(Br)cc1N(Cc1ccc(Cl)cc1)S(=O)(=O)c1ccccc1 , same question.
output: 55.5

input: How about this compound: CCOc1cc(Br)c(Br)cc1N(Cc1cccc(Cl)c1)S(=O)(=O)c1ccccc1
output: 49.6

input: Quick one: CCOc1cc(Br)c(Br)cc1N(C(C)C)S(=O)(=O)c1ccccc1
output: 83.5

input: And what about the compound CCOc1cc(Br)c(Br)cc1N(Cc1ccccc1Cl)S(=O)(=O)c1ccccc1 ?
output: 33.2

input: Entry to check: CCOc1cc(Br)c(Br)cc1N(Cc1ccccc1)S(=O)(=O)c1ccccc1
output: 31.3
